- test.description: self-splicing fitness, log relative to wild type (ln ratio); higher = more splicing; Tetrahymena group I intron in knt gene, E. coli kanamycin selection, DiMSum; sequences stand for … in CUCUCU…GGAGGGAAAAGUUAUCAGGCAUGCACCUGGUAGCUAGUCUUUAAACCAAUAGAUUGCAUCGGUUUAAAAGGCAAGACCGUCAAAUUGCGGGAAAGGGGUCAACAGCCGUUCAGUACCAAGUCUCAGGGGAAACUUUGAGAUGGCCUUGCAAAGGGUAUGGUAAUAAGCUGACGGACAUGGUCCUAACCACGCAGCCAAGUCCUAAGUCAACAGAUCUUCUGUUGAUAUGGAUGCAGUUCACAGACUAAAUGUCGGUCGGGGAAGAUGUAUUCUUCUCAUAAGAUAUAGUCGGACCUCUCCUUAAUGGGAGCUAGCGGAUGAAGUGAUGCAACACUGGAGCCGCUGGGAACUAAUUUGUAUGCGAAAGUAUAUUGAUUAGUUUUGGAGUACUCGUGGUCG;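 note: selection with 25 µg/mL kanamycin versus none on LB agar overnight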
- assay.conditions: 37 °C
# self-splicing fitness (ln) annotations
attribute.measured: self-splicing fitness (ln)

> print(dat)
          input.sequence      val
 1  UCUAAGCAAUAUUACGCCAU    -2.37
 2  CUUAAGCAAUAUUACGAGAC    -3.26
 3  GGCUAGCAAUAUUACGGGCA   0.0658
 4  UGGUAGCAAUAUUACGUUCC    -1.19
 5  AUCUAGCAAUAUUACGUCUG   -0.625
 6  CAGGAGCAAUAUUACGUUUC    -3.11
 7  GCCGAGCAAUAUUACGUAGA    -2.07
 8  UAUUAGCAAUAUUACGACGC    -2.18
 9  AGGUAGCAAUAUUACGGGAG    -2.39
10  CAUUAGCAAUAUUACGUAGG   -0.199
11  GAAAAGCAAUAUUACGGCAG    -1.96
12  GCGAAGCAAUAUUACGUUAA    -1.88
13  AUCCAGCAAUAUUACGGAUG    -1.68
14  GCGCAGCAAUAUUACGCGUA    -1.39
15  UACGAGCAAUAUUACGGCCG    -1.01
16  GCUGAGCAAUAUUACGGUGU     -1.8
17  AUACAGCAAUAUUACGGACG    -1.04
18  CUGAAGCAAUAUUACGAUAA    -2.06
19  ACGUAGCAAUAUUACGAUUG    -1.99
20  CCCUAGCAAUAUUACGCUCG    -2.85
21  CAAAAGCAAUAUUACGUUGC    -3.17
22  AAGAAGCAAUAUUACGAUUC   -0.941
23  AGGAAGCAAUAUUACGCUGA    -1.97
24  UUAUAGCAAUAUUACGUAAU    -2.11
25  AUGCAGCAAUAUUACGUAAC   -0.366
26  UAAAAGCAAUAUUACGACUC   -0.668
27  AAAGAGCAAUAUUACGGUGG    -2.14
28  CCGUAGCAAUAUUACGCGGC    -2.51
29  AAUGAGCAAUAUUACGUUGA    -2.25
30  CAUUAGCAAUAUUACGGGUA   -0.972
31  CCUCAGCAAUAUUACGUCAC    -2.36
32  CGACAGCAAUAUUACGCCAC    0.365
33  UAAUAGCAAUAUUACGUCGG    -1.49
34  UGGUAGCAAUAUUACGCAUA   -0.547
35  GCAUAGCAAUAUUACGAGCU    -1.31
36  AUAUAGCAAUAUUACGGAAA   -0.209
37  AAAGAGCAAUAUUACGGGUC    -3.09
38  ACCUAGCAAUAUUACGGAUU    0.134
39  UUGGAGCAAUAUUACGUCGG   -0.784
40  GGGAAGCAAUAUUACGUGCG   -0.371
41  CAAGAGCAAUAUUACGUCGU    -2.66
42  GCACAGCAAUAUUACGAGUG    -2.64
43  UUUCAGCAAUAUUACGACUA    0.612
44  GCACAGCAAUAUUACGGUAA   -0.547
45  CGAAAGCAAUAUUACGCUCU    -1.56
46  AUAGAGCAAUAUUACGUUAC    -1.37
47  GGGAAGCAAUAUUACGAUAA   -0.785
48  GCGGAGCAAUAUUACGACGA   -0.189
49  CGACAGCAAUAUUACGUGAU    -1.92
50  ACUAAGCAAUAUUACGCCAU    -2.01
51  GGUAAGCAAUAUUACGACGA    0.225
52  CGACAGCAAUAUUACGGUUG    -2.84
53  CAUGAGCAAUAUUACGGCGG   -0.278
54  AUAAAGCAAUAUUACGAACG  -0.0989
55  GAUAAGCAAUAUUACGCCUG    0.488
56  AUGCAGCAAUAUUACGGAAC    -2.76
57  AGUCAGCAAUAUUACGAGAU    -1.76
58  CCACAGCAAUAUUACGGCUC    -1.79
59  UCGCAGCAAUAUUACGAAGU    -2.53
60  UAAUAGCAAUAUUACGGAUU    -1.02
61  GUCUAGCAAUAUUACGAUCG    -1.09
62  CUCCAGCAAUAUUACGGUGG    -2.42
63  GUACAGCAAUAUUACGAGGU    -1.97
64  UCAAAGCAAUAUUACGAACC   -0.879
65  UUCAAGCAAUAUUACGACAG     -1.1
66  UCGAAGCAAUAUUACGUUGG    -1.86
67  AACAAGCAAUAUUACGCAGU    -1.93
